- procedureDetails: Clearance in Beagle dog at 0.3 mg/kg, iv measured after 0.03 to 24 hrs by UHPLC-TOF method
- Assay type: ADME, organism-based, Canis lupus familiaris
- experimentalConditions: in vivo, time 0.03-24 hrs
observedProperty: clearance (mL/min/kg)
Give the quantity in mL/min/kg, number only.

The measured clearance associated with NCc1ccc2c(c1)nc(CN1C(=O)C3(CC3)c3ccc(F)cc31)n2CCCC(F)(F)F [SISUNATOVIR] reads 17.8

The measured clearance associated with NCc1ccc2c(c1)nc(CN1C(=O)C3(CC3)c3ccc(F)cc31)n2C1CCOCC1 reads 19.2

---

- procedureDetails: Thermodynamic solubility in PBS at 1 to 100 uM at pH 7.4 by HPLC-UV method
- Type: physicochemical
- experimentalConditions: dose 1-100 µM, read-out: Therm_solubility
observedProperty: solubility thermodynamic (µM)
Give the quantity in µM, number only.

The measured solubility thermodynamic associated with NCc1ccc2c(c1)nc(CN1C(=O)C3(CC3)c3ccc(F)cc31)n2C1CCC(O)CC1 (stereo not drawn) reads 313

The measured solubility thermodynamic associated with CC(C)CCn1c(CN2C(=O)C3(CC3)c3ccccc32)nc2cc(CN)ccc21 reads 155

The measured solubility thermodynamic associated with NCc1ccc2c(c1)nc(CN1C(=O)C3(CC3)c3ccc(F)cc31)n2C1CCOCC1 reads 1270

---

- procedureDetails: Protein binding in human plasma assessed as unbound fraction at 5 uM by LC-MS/MS analysis based equilibrium dialysis method
- Assay type: ADME, cell-free
observedProperty: fraction unbound at 5 µM
Note: the reply should be a number with no unit written.

The measured fraction unbound at 5 µM associated with CC(C)CCn1c(CN2C(=O)C3(CC3)c3cc(F)ccc32)nc2cc(CN)ccc21 reads 0.11

The measured fraction unbound at 5 µM associated with CC(C)CCn1c(CN2C(=O)C3(CCCC3)c3ccncc32)nc2cc(CN)ccc21 reads 0.17

The measured fraction unbound at 5 µM associated with NCc1ccc2c(c1)nc(CN1C(=O)C3(CC3)c3ccc(F)cc31)n2CCCC(F)(F)F reads 0.67

The measured fraction unbound at 5 µM associated with CC(C)CCn1c(CN2C(=O)C3(CC3)c3ccccc32)nc2cc(CN)ccc21 reads 0.07

The measured fraction unbound at 5 µM associated with CC(C)CCn1c(CN2C(=O)C3(CC3)c3ccc(F)cc32)nc2cc(CN)ccc21 reads 0.184

The measured fraction unbound at 5 µM associated with CC(C)CCn1c(CN2C(=O)C3(CC3)c3cccc(F)c32)nc2cc(CN)ccc21 reads 0.42

The measured fraction unbound at 5 µM associated with NCc1ccc2c(c1)nc(CN1C(=O)C3(CC3)c3ccc(F)cc31)n2C1CCOCC1 reads 0.548

---

- procedureDetails: Intrinsic clearance in Beagle dog liver microsomes preincubated followed by NADPH addition and measured up to 45 mins by LC-MS/MS analysis
- Format: ADME, Canis lupus familiaris, Microsome
observedProperty: intrinsic clearance (µL/min)
Give the quantity in µL/min, number only.

The measured intrinsic clearance associated with NCc1ccc2c(c1)nc(CN1C(=O)C3(CC3)c3cccc(F)c31)n2CCCC(F)(F)F reads 2

The measured intrinsic clearance associated with CC(C)CCn1c(CN2C(=O)C3(CC3)c3cccc(F)c32)nc2cc(CN)ccc21 reads 2.23

The measured intrinsic clearance associated with CC(C)CCn1c(CN2C(=O)C3(CC3)c3cccnc32)nc2cc(CN)ccc21 reads 71.3

The measured intrinsic clearance associated with NCc1ccc2c(c1)nc(CN1C(=O)C3(CC3)c3ccc(F)cc31)n2C1CCC(O)CC1 (stereo unspecified) reads 5.02

The measured intrinsic clearance associated with CS(=O)(=O)CCCn1c(CN2C(=O)C3(CC3)c3ccc(F)cc32)nc2cc(CN)ccc21 reads 5.34

The measured intrinsic clearance associated with CC(C)CCn1c(CN2C(=O)C3(CC3)c3ccc(F)cc32)nc2cc(CN)ccc21 reads 6.23

The measured intrinsic clearance associated with O=C1N(Cc2nc3cc(Cl)ccc3n2CCCC(F)(F)F)c2cc(F)ccc2C12CC2 reads 328

The measured intrinsic clearance associated with NCc1ccc2c(c1)nc(CN1C(=O)C3(CC3)c3ccc(F)cc31)n2C1CCOCC1 reads 0.4

---

- procedureDetails: Cmax in Sprague-Dawley rat at 10 mg/kg, po measured after 0.02 to 24 hrs by UHPLC-TOF method
- Type: ADME, organism-based
- Set-up: route oral, dose 10 mg/kg, time 0.02-24 hrs
- experimentalConditions: in vivo
Please go through the items and note down their Cmax.
Give the quantity in ng/mL, number only.

The measured Cmax associated with NCc1ccc2c(c1)nc(CN1C(=O)C3(CC3)c3ccc(F)cc31)n2CCCC(F)(F)F reads 74.2

The measured Cmax associated with NCc1ccc2c(c1)nc(CN1C(=O)C3(CC3)c3cccc(F)c31)n2CCCC(F)(F)F reads 44.3

---

- procedureDetails: Thermodynamic solubility in PBS at 1 to 100 uM at pH 7.4 by HPLC-UV method
- Type: physicochemical
- experimentalConditions: dose 1-100 µM, read-out: Therm_solubility
observedProperty: solubility thermodynamic (µM)
Give the quantity in µM, number only.

The measured solubility thermodynamic associated with NCc1ccc2c(c1)nc(CN1C(=O)C3(CC3)c3ccc(F)cc31)n2CCCC(F)(F)F reads 417

The measured solubility thermodynamic associated with NCc1ccc2c(c1)nc(CN1C(=O)C3(CC3)c3cccc(F)c31)n2CCCC(F)(F)F reads 1180

The measured solubility thermodynamic associated with CC(C)CCn1c(CN2C(=O)C3(CC3)c3ccc(F)cc32)nc2cc(CN)ccc21 reads 176

The measured solubility thermodynamic associated with CC(C)CCn1c(CN2C(=O)C3(CC3)c3cccc(F)c32)nc2cc(CN)ccc21 reads 1230

The measured solubility thermodynamic associated with CS(=O)(=O)CCCn1c(CN2C(=O)C3(CC3)c3ccc(F)cc32)nc2cc(CN)ccc21 reads 2600

---

- procedureDetails: Protein binding in rat plasma assessed as unbound fraction at 5 uM by LC-MS/MS analysis based equilibrium dialysis method
- Assay type: ADME, cell-free
Please go through the items and note down their fraction unbound at 5 µM.
Note: the reply should be a number with no unit written.

The measured fraction unbound at 5 µM associated with CC(C)CCn1c(CN2C(=O)C3(CC3)c3cc(F)ccc32)nc2cc(CN)ccc21 reads 0.19

The measured fraction unbound at 5 µM associated with CC(C)CCn1c(CN2C(=O)C3(CC3)c3ccc(F)cc32)nc2cc(CN)ccc21 reads 0.333

The measured fraction unbound at 5 µM associated with NCc1ccc2c(c1)nc(CN1C(=O)C3(CC3)c3ccc(F)cc31)n2C1CCOCC1 reads 0.399

The measured fraction unbound at 5 µM associated with NCc1ccc2c(c1)nc(CN1C(=O)C3(CC3)c3ccc(F)cc31)n2CCCC(F)(F)F [SISUNATOVIR] reads 0.52

The measured fraction unbound at 5 µM associated with CC(C)CCn1c(CN2C(=O)C3(CC3)c3ccccc32)nc2cc(CN)ccc21 reads 0.1

The measured fraction unbound at 5 µM associated with CC(C)CCn1c(CN2C(=O)C3(CC3)c3cccc(F)c32)nc2cc(CN)ccc21 reads 0.104

The measured fraction unbound at 5 µM associated with CC(C)CCn1c(CN2C(=O)C3(CCCC3)c3ccncc32)nc2cc(CN)ccc21 reads 0.24

---

Please go through the items and note down their Papp A→B at 1 h, 10 µM.
- procedureDetails: Apparent permeability across apical to basolateral side in MDCK-MDR1 cells at 10 uM measured at 60 mins by LC-MS/MS analysis
- Assay type: ADME, cell-based, Canis lupus familiaris
- experimentalConditions: dog, MDCK-MDR1
Please state the number and follow it with the unit.

The measured Papp A→B at 1 h, 10 µM associated with NCc1ccc2c(c1)nc(CN1C(=O)C3(CC3)c3ccc(F)cc31)n2CCCC(F)(F)F reads 0.5 ×10⁻⁶ cm/s

The measured Papp A→B at 1 h, 10 µM associated with NCc1ccc2c(c1)nc(CN1C(=O)C3(CC3)c3cccc(F)c31)n2CCCC(F)(F)F reads 0.4 ×10⁻⁶ cm/s

The measured Papp A→B at 1 h, 10 µM associated with CS(=O)(=O)CCCn1c(CN2C(=O)C3(CC3)c3ccc(F)cc32)nc2cc(CN)ccc21 reads 0.24 ×10⁻⁶ cm/s

The measured Papp A→B at 1 h, 10 µM associated with NCc1ccc2c(c1)nc(CN1C(=O)C3(CC3)c3ccc(F)cc31)n2C1CCOCC1 reads 0.4 ×10⁻⁶ cm/s

The measured Papp A→B at 1 h, 10 µM associated with NCc1ccc2c(c1)nc(CN1C(=O)C3(CC3)c3ccc(F)cc31)n2C1CCC(O)CC1 (stereo not given) reads 0.1 ×10⁻⁶ cm/s

---

Please go through the items and note down their pIC50.
- measuredOn: Fusion glycoprotein F0 (Human respiratory syncytial virus A (strain A2))
- Sequence (P03420 26-109 limits assumed): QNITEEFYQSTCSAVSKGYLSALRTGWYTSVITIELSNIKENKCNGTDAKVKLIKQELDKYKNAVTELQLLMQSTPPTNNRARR
- Sequence (P03420 137-574 limits assumed): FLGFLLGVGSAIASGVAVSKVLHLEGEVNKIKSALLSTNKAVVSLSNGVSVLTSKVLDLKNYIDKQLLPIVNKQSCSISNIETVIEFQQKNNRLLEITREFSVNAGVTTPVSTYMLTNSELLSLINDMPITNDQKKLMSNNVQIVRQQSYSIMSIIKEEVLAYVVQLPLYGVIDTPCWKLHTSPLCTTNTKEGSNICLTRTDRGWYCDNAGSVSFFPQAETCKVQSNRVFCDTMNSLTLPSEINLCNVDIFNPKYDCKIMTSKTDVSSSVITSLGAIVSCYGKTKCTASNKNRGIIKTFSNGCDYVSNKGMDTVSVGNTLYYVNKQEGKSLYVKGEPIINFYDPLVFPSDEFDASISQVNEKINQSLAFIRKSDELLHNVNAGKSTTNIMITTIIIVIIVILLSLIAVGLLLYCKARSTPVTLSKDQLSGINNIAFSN
- procedureDetails: Inhibition of Respiratory syncytial virus fusion protein
Units for pIC50: none; it is -log10 of a concentration expressed in mol/L.

Tested system Fusion glycoprotein F0 (Human respiratory syncytial virus A (strain A2)); pIC50 recorded for CC(C)CCn1c(CN2C(=O)C3(CC3)c3cccnc32)nc2cc(CN)ccc21 was 9.05

Tested system Fusion glycoprotein F0 (Human respiratory syncytial virus A (strain A2)); pIC50 recorded for CC(C)CCn1c(CN2C(=O)C3(CC3)c3ccncc32)nc2cc(CN)ccc21 was 9.05

Tested system Fusion glycoprotein F0 (Human respiratory syncytial virus A (strain A2)); pIC50 recorded for CC(C)CCn1c(CN2C(=O)C3(CCOCC3)c3ccccc32)nc2cc(CN)ccc21 was 9.16

Tested system Fusion glycoprotein F0 (Human respiratory syncytial virus A (strain A2)); pIC50 recorded for CC(=O)N1CC2(C1)C(=O)N(Cc1nc3cc(CN)ccc3n1CCC(C)C)c1ccccc12 was 8.96
